// reported inhibition at 100 µM for each item listed
- SYSTEM UNDER TEST: recombinant human ER-β (Homo sapiens, UniProt Q92731)
- Construct: purchased Invitrogen (Carlsbad, Calif.)
- Sequence (Q92731 whole entry): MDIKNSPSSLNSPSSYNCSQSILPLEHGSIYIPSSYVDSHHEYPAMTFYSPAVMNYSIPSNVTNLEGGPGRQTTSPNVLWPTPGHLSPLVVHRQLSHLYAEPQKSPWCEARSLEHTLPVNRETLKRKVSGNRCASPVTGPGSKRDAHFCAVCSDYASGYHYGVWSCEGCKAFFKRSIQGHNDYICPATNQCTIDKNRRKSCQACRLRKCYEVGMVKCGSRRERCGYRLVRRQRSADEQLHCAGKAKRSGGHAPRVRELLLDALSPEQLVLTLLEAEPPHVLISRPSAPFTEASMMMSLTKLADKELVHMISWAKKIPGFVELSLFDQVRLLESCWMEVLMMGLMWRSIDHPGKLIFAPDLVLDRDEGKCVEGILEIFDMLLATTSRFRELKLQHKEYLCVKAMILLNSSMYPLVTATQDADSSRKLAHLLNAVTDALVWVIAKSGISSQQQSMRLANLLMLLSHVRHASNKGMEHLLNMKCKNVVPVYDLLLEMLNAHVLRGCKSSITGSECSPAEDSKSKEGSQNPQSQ
- METHOD: Binding affinity for recombinant human ER-β (fluorescence polarization, ES2 displacement)
- STATED CONDITIONS: 2 h; Table 2; at 100000 nM compound; read-out: ER-β percent competition
Please respond with the number in % and leave the unit unwritten.

>  <COMPOUND>
CC(=C(c1ccc(O)cc1)c1ccc(O)cc1)c1ccc([N+](=O)[O-])cc1 [Compound 37a]

>  <inhibition at 100 µM, %>
55

$$$$
>  <COMPOUND>
CCC(=C(c1ccc(O)cc1)c1ccc(O)cc1)c1ccc([N+](=O)[O-])cc1 [Compound 37b]

>  <inhibition at 100 µM, %>
66

$$$$
>  <COMPOUND>
CC(=C(c1ccc(N)cc1)c1ccc(N)cc1)c1ccc(N)cc1 [Compound 38c]

>  <inhibition at 100 µM, %>
77

$$$$

## Input Respond only with inhibition at 100 µM recorded for CCC(=C(c1ccc(N)cc1)c1ccc(N)cc1)c1ccc(N)cc1 [Compound 38d]
## Output 76

----------
- SYSTEM UNDER TEST: recombinant human aromatase (CYP19) (Homo sapiens, UniProt P11511)
- Construct: purchased BD Biosciences (San Jose, Calif.)
- Sequence (P11511 whole entry): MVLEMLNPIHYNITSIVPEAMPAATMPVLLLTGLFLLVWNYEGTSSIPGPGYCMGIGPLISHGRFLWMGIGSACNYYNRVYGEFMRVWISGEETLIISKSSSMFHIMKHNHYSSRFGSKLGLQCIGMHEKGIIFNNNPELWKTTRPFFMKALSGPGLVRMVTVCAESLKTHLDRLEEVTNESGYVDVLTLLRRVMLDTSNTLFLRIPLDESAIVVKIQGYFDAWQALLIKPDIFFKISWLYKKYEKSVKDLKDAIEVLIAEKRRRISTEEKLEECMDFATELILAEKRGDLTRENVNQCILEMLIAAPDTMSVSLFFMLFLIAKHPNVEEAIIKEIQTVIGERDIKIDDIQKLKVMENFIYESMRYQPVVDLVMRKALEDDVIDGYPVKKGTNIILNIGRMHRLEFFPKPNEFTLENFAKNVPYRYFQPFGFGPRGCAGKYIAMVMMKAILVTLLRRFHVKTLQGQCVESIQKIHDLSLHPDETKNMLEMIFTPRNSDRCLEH
- METHOD: Inhibition of recombinant human aromatase (CYP19) by microsomal incubations (MFC fluorometric substrate)
- Type: biochemical
- STATED CONDITIONS: Table 1; mean of at least three experiments
Rule for this label: criterion met means IC50 is less than 3000 nM; criterion not met means IC50 is at least 3000 nM.

>  <COMPOUND>
Oc1ccc(C(=C(Cn2cncn2)c2ccccc2)c2ccc(O)cc2)cc1 [Compound 13]

>  <CAT>
criterion met

$$$$
>  <COMPOUND>
Nc1ccc(C(Cn2cncn2)=C(c2ccc(O)cc2)c2ccc(O)cc2)cc1 [Compound 27]

>  <CAT>
criterion met

$$$$
>  <COMPOUND>
Nc1cccc(C(Cn2ccnc2)=C(c2ccc(O)cc2)c2ccc(O)cc2)c1 [Compound 35]

>  <CAT>
criterion met

$$$$
>  <COMPOUND>
Oc1ccc(C(Cn2cnnc2)=C(c2ccc(O)cc2)c2ccc(O)cc2)cc1 [Compound 20a]

>  <CAT>
criterion not met

$$$$
>  <COMPOUND>
Oc1ccc(C(=C(Cn2ccnc2)c2ccccc2)c2ccc(O)cc2)cc1 [Compound 12]

>  <CAT>
criterion met

$$$$
>  <COMPOUND>
Oc1ccc(C(=C(Cn2ccnc2)c2ccc(O)c(F)c2)c2ccc(O)cc2)cc1 [Compound 18b]

>  <CAT>
criterion met

$$$$

## Input Identify whether the compound N#CCC(=C(c1ccc(O)cc1)c1ccc(O)cc1)c1ccc(N)cc1 [Compound 25] records IC50 below 3000 nM.
## Output criterion met

## Input Given the entry N#CCC(=C(c1ccc(O)cc1)c1ccc(O)cc1)c1ccc(O)cc1 [Compound 17a] , would its reported IC50 be below 3000 nM?
## Output criterion not met

## Input I'd appreciate it if you could check whether Oc1ccc(C(=C(Cn2cnnc2)c2ccc(O)c(F)c2)c2ccc(O)cc2)cc1 [Compound 20b] has IC50 smaller than 3000 nM.
## Output criterion not met

## Input Is it true that IC50 reported for Oc1ccc(C(=C(Cn2ccnc2)c2cccc(O)c2)c2ccc(O)cc2)cc1 [Compound 32] is less than 3000 nM?
## Output criterion met

## Input Here's an entry: Nc1ccc(C(Cn2cnnc2)=C(c2ccc(O)cc2)c2ccc(O)cc2)cc1 [Compound 28] . Is its IC50 below 3000 nM?
## Output criterion met

## Input Does the reported IC50 of the following compound sit strictly below 3000 nM? Oc1ccc(C(Cn2ccnc2)=C(c2ccc(O)cc2)c2ccc(O)cc2)cc1 [Compound 18a]
## Output criterion met

## Input Please let me know if N#CCC(=C(c1ccc(O)cc1)c1ccc(O)cc1)c1ccc(O)c(F)c1 [Compound 17b] shows IC50 below 3000 nM.
## Output criterion not met

## Input Determine whether this compound shows IC50 lower than 3000 nM (ties excluded): Nc1ccc(C(Cn2ccnc2)=C(c2ccc(O)cc2)c2ccc(O)cc2)cc1 [Compound 26]
## Output criterion met

## Input Answer whether the compound N#CCC(=C(c1ccc(O)cc1)c1ccc(O)cc1)c1ccccc1 [Compound 11] has IC50 strictly less than 3000 nM
## Output criterion not met
